pIC50: −log10 of the molar value.
# pIC50 measurements, system: Poly [ADP-ribose] polymerase 1 (Homo sapiens)
# Sequence (P09874 whole entry): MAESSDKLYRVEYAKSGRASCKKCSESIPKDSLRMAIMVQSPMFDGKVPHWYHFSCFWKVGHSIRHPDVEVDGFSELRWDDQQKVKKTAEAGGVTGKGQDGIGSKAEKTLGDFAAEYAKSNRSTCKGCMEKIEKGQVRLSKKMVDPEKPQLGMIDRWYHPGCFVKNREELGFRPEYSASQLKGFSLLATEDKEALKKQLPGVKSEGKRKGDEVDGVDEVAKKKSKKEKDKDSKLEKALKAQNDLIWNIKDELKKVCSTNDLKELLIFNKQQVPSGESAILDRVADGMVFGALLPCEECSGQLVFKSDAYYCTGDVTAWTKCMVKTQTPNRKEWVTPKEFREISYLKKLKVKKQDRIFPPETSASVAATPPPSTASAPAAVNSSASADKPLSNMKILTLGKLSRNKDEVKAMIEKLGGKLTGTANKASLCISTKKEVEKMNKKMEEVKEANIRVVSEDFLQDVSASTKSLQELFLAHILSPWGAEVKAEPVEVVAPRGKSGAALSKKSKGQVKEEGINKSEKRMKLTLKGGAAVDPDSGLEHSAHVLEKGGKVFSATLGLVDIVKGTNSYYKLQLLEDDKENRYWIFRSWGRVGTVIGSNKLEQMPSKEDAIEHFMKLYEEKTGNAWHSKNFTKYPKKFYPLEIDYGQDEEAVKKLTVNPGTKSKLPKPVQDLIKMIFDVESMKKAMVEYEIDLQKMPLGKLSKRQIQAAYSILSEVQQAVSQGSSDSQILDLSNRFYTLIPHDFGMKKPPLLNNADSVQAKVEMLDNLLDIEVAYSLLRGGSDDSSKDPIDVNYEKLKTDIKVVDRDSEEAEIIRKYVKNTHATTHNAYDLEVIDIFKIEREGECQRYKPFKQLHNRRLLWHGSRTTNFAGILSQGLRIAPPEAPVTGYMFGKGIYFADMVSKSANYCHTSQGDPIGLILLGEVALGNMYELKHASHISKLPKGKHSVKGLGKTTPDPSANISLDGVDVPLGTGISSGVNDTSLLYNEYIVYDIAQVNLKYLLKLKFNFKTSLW
value type: pIC50

compound: NC(=O)c1ccc(O)cc1
value measured: 3.55
--
compound: CN(C)c1cccc(C(N)=O)c1
value measured: 3.92
--
compound: NC(=O)c1ccc(Cl)cc1
value measured: 3.52
--
compound: O=c1[nH]cnc2ccccc12 [QUINAZOLINONE]
value measured: 5.02

a. NC(=O)c1ccccc1 [BENZAMIDE]
b. NC(=O)c1ccc(N)cc1
Ask | Please let me know which one, a or b , has a lower measured pIC50 value. Respond using the label that marks the chosen record.
Reply | b
(b: 2.74, a: 4.66)

* * *

- assay remarks: poly(ADP-ribose)-polymerase (PARP) inhibition
pIC50: −log10 of the molar value.
value type: pIC50

Here is how some molecules turned out for pIC50.
compound structure: Cc1cccc2c(O)nc(-c3ccc(N)cc3)nc12
pIC50: 6.36
//
compound structure: O=[N+]([O-])c1ccc(-c2nc(O)c3cccc(O)c3n2)cc1
pIC50: 6.64
//
compound structure: Cc1cccc2c(O)nc(-c3ccccc3)nc12
pIC50: 6.06
//
compound structure: Cc1cccc2c(O)nc(-c3ccc(C#N)cc3)nc12
pIC50: 6.57
//
compound structure: Nc1ccc(-c2nc(O)c3cccc(O)c3n2)cc1
pIC50: 6.28

A. COc1cccc2c(O)nc(-c3ccc([N+](=O)[O-])cc3)nc12
B. COc1cccc2c(O)nc(-c3ccc(C#N)cc3)nc12
Ask | Which shows the larger pIC50 value: A or B ? Reply with the label of the item you choose.
Reply | A

* * *

- assay remarks: poly(ADP-ribose)-polymerase (PARP) inhibition
pIC50: −log10 of the molar value.
value type: pIC50

Some entries whose results are on file:
compound structure: COc1ccc(-c2nc(O)c3cccc(C)c3n2)cc1
value measured: 6.72
--
compound structure: Cc1cccc2c(O)nc(-c3ccc(O)cc3)nc12
value measured: 6.66

1. COc1cccc2c(O)nc(-c3ccccc3)nc12
2. COc1cccc2c(O)nc(-c3ccc(C(F)(F)F)cc3)nc12
Ask | Input pair: 1 , 2 . Output: entry with lower pIC50. Please reply using the label of the selected record.
Reply | 2
(2: 4.41, 1: 5.38)
